experiment: in vivo; details: rat, plasma
measuredProperty: half-life (min)
Response body: numeric value in min, unit text excluded.

Consider the compound shown here: CN1CCC[C@H]1c1cccnc1 What is its recorded half-life?
54

----------
test: Cmax in rat at 0.40 mg/kg via inhalation; format: ADME, organism-based; parameters: dose 0.4 mg/kg, route inh; settings: in vivo, inhaled or intranasal, 0.4 mg/kg
measuredProperty: Cmax (ng/mL)
Response body: numeric value in ng/mL, unit text excluded.

Consider the molecule shown here: C1=CCC(c2cccnc2)NC1 (stereo unspecified) What is its recorded Cmax?
160

----------
test: Half life in Wistar rat plasma at 1 mg/kg, iv administered as bolus dose measured after 5 to 360 mins by LC-MS/MS analysis; type: ADME, organism-based; conditions: time 5-360 min
measuredProperty: half-life (h)
Response body: numeric value in h, unit text excluded.

Consider the molecule shown here: C1=CCC(c2cccnc2)NC1 (stereo unspecified) What is its recorded half-life?
1.14

Origin of measurements: ChEMBL document CHEMBL5096164
